Test system: CD2F1 mice, ip reticulum cell sarcoma, survival T/C
Assay: NCI In Vivo Anticancer Drug Screen. Data for tumor model Reticulum Cell Sarcoma (Kelley Mouse) (intraperitoneal) in CD2F1 (CDF1) mice
Details: endpoint: median survival time; dose: 5.0 mg/kg/injection; schedule: Q01DX010 (ip); vehicle: saline
Toxic doses and inconclusive results are not listed. The calls were made as follows: active = survival T/C of 150% or more; inactive = T/C below 125% in these data.
Outcome field: choose from TRUE for active, FALSE for inactive

Returns: the outcome recorded for Cc1cc(N(CCCl)CCCl)ccc1N=Nc1ccccc1C(=O)O in this assay.
FALSE

Returns: the outcome recorded for O=c1[nH]c(=O)n(C2CC(O)C(CO)O2)cc1F (centres undefined) in this assay.
TRUE

Returns: the outcome recorded for CN(C)c1ccc(/C=C/c2ccnc3ccccc23)cc1 in this assay.
FALSE

Returns: the outcome recorded for Oc1cc(CN(CCCl)CCCl)c(O)cc1CN(CCCl)CCCl in this assay.
FALSE

====

Tested on: CD2F1 mice, ip reticulum cell sarcoma, survival T/C
Test: NCI In Vivo Anticancer Drug Screen. Data for tumor model Reticulum Cell Sarcoma (Kelley Mouse) (intraperitoneal) in CD2F1 (CDF1) mice
Conditions: endpoint: median survival time; dose: 50.0 mg/kg/injection; schedule: Q01DX010 (ip); vehicle: saline; higher = longer survival
Inconclusive results and toxic doses are left out.
parameterMeasured: T/C

Report T/C, nothing else, for this compound: CS(=O)(=O)OCCC(=O)N1CCN(C(=O)CCOS(C)(=O)=O)CC1
114 % of control

Report T/C, nothing else, for this compound: CN(C)/N=N/c1nc[nH]c1C(N)=O
100 % of control

Report T/C, nothing else, for this compound: CSc1ncnc2nc[nH]c12
100 % of control

Report T/C, nothing else, for this compound: COc1cc(-c2ccc(Nc3ccccc3C(=O)O)c(OC)c2)ccc1Nc1ccccc1C(=O)O
105 % of control

====

Tested on: CD2F1 mice, ip reticulum cell sarcoma, survival T/C
Experiment: NCI In Vivo Anticancer Drug Screen. Data for tumor model Reticulum Cell Sarcoma (Kelley Mouse) (intraperitoneal) in CD2F1 (CDF1) mice
Conditions: endpoint: median survival time; dose: 4.0 mg/kg/injection; schedule: Q01DX010 (ip); vehicle: saline
Toxic doses and inconclusive results are not listed. How the source made its calls: active means survival T/C of 150% or more; inactive means T/C below 125% in these data.
Outcome field: choose from active, inactive

Returns: the outcome recorded for Nc1nc(F)nc2c1ncn2C1OC(CO)C(O)C1O (centres undefined) in this assay.
inactive

Returns: the outcome recorded for Nc1nc(=S)c2ncn(C3OC(CO)C(O)C3O)c2[nH]1 (centres undefined) in this assay.
inactive

Returns: the outcome recorded for CC(CCC(C)OS(C)(=O)=O)OS(C)(=O)=O (centres undefined) in this assay.
inactive

Returns: the outcome recorded for O=C(Nc1ccc(NC2=NCCN2)cc1)c1ccc(C(=O)Nc2ccc(NC3=NCCN3)cc2)cc1 in this assay.
active
